# Assay Target: 4-hydroxyphenylpyruvate dioxygenase (Sus scrofa, UniProt Q02110)
# Sequence (Q02110 whole entry): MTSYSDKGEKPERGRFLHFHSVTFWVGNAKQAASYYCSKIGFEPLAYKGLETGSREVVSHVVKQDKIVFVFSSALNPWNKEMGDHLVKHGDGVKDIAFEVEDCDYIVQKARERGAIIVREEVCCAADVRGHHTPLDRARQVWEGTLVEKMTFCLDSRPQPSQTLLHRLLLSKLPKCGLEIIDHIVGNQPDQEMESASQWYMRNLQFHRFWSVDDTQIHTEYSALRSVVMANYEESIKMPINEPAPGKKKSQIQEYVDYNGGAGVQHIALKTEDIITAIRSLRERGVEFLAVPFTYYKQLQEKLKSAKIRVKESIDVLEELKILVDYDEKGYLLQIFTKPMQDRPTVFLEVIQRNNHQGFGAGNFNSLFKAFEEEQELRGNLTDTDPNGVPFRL
# Method: Concentration required to achieve 50% inhibition against 4-Hydroxyphenylpyruvate dioxygenase (HPPD) from pig liver
Quantity Kind: IC50 (nM)
Number in nM, nothing else.

**Query** Determine from records and report IC50 for `O=C1C=C(OC(=O)C2CC2)CC1`
**Result** 70

**Query** State its IC50: `O=C(Oc1cc(=O)oc2ccccc12)C1CC1`
**Result** 110

**Query** For `O=C1CCCC(=O)C1=C(O)c1ccccc1` , write its IC50.
**Result** 11200

**Query** Find the measured IC50 of `O=C1CCCC(=O)C1=C(O)c1ccccc1C(F)(F)F` and report it.
**Result** 250

**Query** For `O=C1CCCC(=O)C1=C(O)c1ccccc1Br` , write its IC50.
**Result** 560

**Query** Name the recorded IC50 of the compound listed here: `O=C1CCCC(=O)C1=C(O)c1ccccc1I`
**Result** 760

**Query** Give IC50 for the following compound: `COC1=CC(=O)C(OC(=O)C2CC2)=CC1=O`
**Result** 30000

**Query** Return value of IC50 for input `O=C1CCCC(=O)C1=C(O)c1ccccc1Cl` , no commentary.
**Result** 500

**Query** In one line, give reported IC50 of the entry `Cc1ccccc1C(O)=C1C(=O)CCCC1=O` .
**Result** 3750

**Query** Report measured IC50; entry is `O=C(Oc1cccc(O)c1)C1CC1`
**Result** 250

**Query** Recall and state the measured IC50 for CCOC(=O)C1CC(=O)C=C(OC(=O)C2CC2)C1 (configuration not stated) .
**Result** 90

**Query** Return reported IC50. Input compound: `CS(=O)(=O)c1ccc(C(O)=C2C(=O)CCCC2=O)c(Cl)c1`
**Result** 50

**Query** Report IC50, nothing else, for this compound: `CC1(C)CC(=O)C=C(OC(=O)C2CC2)C1`
**Result** 330

**Query** Determine its reported IC50: `COc1ccccc1C(O)=C1C(=O)CCCC1=O`
**Result** 11700

**Query** Note IC50 for the compound shown: `O=C1CCCC(OC(=O)C2CC2)=C1Cl`
**Result** 20

**Query** Tell me measured IC50 for `O=C1CCCC(OC(=O)C2CC2)=C1Br` please.
**Result** 30

**Query** Using known records, supply IC50 for CCOC(=O)C1CC(=O)C(C(=O)C2CC2)=C(OC(=O)C2CC2)C1 (configuration not stated)
**Result** 40

* * *

# Assay Target: 4-hydroxyphenylpyruvate dioxygenase (Sus scrofa, UniProt Q02110)
# Method: Concentration required to achieve 50% inhibition against 4-hydroxyphenylpyruvate dioxygenase from pig liver
IC50 strictly under 20 µM means yes (1); at 20 µM or over means no (0).

**Query** I'd appreciate it if you could check whether `O=C1CCCC(O)=C1C(=O)C1CCCCC1` has IC50 smaller than 20 µM.
**Result** no (0)

**Query** Here's an entry: `CC(=O)C1=C(O)CCCC1=O` . Is its IC50 below 20 µM?
**Result** yes (1)

**Query** Confirm or reject: IC50 of `CCC(=O)C1=C(O)CCCC1=O` lies strictly below 20 µM
**Result** yes (1)

**Query** Problem: For the compound `O=C1CCCC(O)=C1C(=O)C1CC1` , is IC50 under 20 µM?
**Result** yes (1)

**Query** Is the reported IC50 for `CC(C)C(=O)C1=C(O)CCCC1=O` strictly below 20 µM?
**Result** no (0)

Origin of values: ChEMBL document CHEMBL1134879
